Provide the reported melting point of each item.
- Condition description: a range is the spread between reports

Prompt: What does the record list as melting point for `CC#CCO` ?
Completion: -2.2 to -2 °C

Prompt: What does the record list as melting point for `O=C(O)c1cc(Cl)c(O)c(Cl)c1` ?
Completion: 265 to 268 °C

Prompt: What does the record list as melting point for `CCOC(=O)c1ccc([N+](=O)[O-])o1` ?
Completion: 100 to 101 °C

Prompt: What does the record list as melting point for `ClCC(Cl)Cl` ?
Completion: -37 to -35 °C

Prompt: What does the record list as melting point for `C=CCC1CCCC1` ?
Completion: -111 °C

Prompt: What does the record list as melting point for `CCC(=O)c1ccc(C)cc1` ?
Completion: 7 to 7.2 °C

Prompt: What does the record list as melting point for `CC(C)[N+](=O)[O-]` ?
Completion: -93 to -91.3 °C

Prompt: What does the record list as melting point for `Cc1ccc(OCC(=O)O)cc1` ?
Completion: 140 to 141 °C

Prompt: What does the record list as melting point for `c1ccc2c(c1)CCc1ccccc1N2` ?
Completion: 106 to 107 °C

Prompt: What does the record list as melting point for `O=C(O)c1cc2ccccc2o1` ?
Completion: 192 to 194 °C

Prompt: What does the record list as melting point for `CC` ?
Completion: -183 °C

Prompt: What does the record list as melting point for `c1ccc(-c2cc3ccccc3[nH]2)cc1` ?
Completion: 190 °C

Prompt: What does the record list as melting point for `CCCCP(=O)(CCCC)CCCC` ?
Completion: 64 to 67 °C

Prompt: What does the record list as melting point for `O=C(O)CCCCC(=O)O` ?
Completion: 152 to 153 °C

Prompt: What does the record list as melting point for `O=[N+]([O-])c1ccc(N=C=S)cc1` ?
Completion: 108 to 111 °C

Prompt: What does the record list as melting point for `Clc1cccnc1Cl` ?
Completion: 66 to 67 °C

Prompt: What does the record list as melting point for `O=[N+]([O-])c1ccc(O)c(O)c1` ?
Completion: 175 to 176 °C

Prompt: What does the record list as melting point for `Nc1ccccc1I` ?
Completion: 55 to 58 °C

Prompt: What does the record list as melting point for `C/C=C/C` ?
Completion: -106 to -105 °C

Prompt: What does the record list as melting point for `N#Cc1c[nH]cc1-c1cccc2c1OC(F)(F)O2` ?
Completion: 199 °C

Prompt: What does the record list as melting point for `CC=C(C)C` ?
Completion: -134 °C

Prompt: What does the record list as melting point for `O=C(OC(=O)c1ccccc1)c1ccccc1` ?
Completion: 42 to 42.5 °C

Prompt: What does the record list as melting point for `Cc1cccc(-c2cccc(C)c2)c1` ?
Completion: 7 to 9 °C

Prompt: What does the record list as melting point for `CNC(=O)Oc1cccc2c1OC(C)(C)C2` ?
Completion: 151 to 152 °C

Prompt: What does the record list as melting point for `CC(C)Nc1ccc(Nc2ccccc2)cc1` ?
Completion: 74 to 77 °C

Prompt: What does the record list as melting point for `O=C(O)c1cc(I)cc(I)c1O` ?
Completion: 231 to 236 °C

Prompt: What does the record list as melting point for `N#CCC#N` ?
Completion: 32 to 34 °C

Prompt: What does the record list as melting point for CC=CC(C)CC (stereo not drawn) ?
Completion: -126 °C

Prompt: What does the record list as melting point for `O=Cc1ccc([N+](=O)[O-])o1` ?
Completion: 35.5 to 36 °C

Prompt: What does the record list as melting point for `CCCCCCCCCCCl` ?
Completion: -31.3 to -31 °C

Prompt: What does the record list as melting point for `O=S(=O)(Cl)c1ccc(I)cc1` ?
Completion: 82 to 85 °C

Prompt: What does the record list as melting point for NC(CC(=O)O)C(=O)O (stereo not drawn) ?
Completion: 270 to 275 °C

Prompt: What does the record list as melting point for `c1ccc2nccnc2c1` ?
Completion: 28 to 30 °C

Prompt: What does the record list as melting point for `O=C(c1ccccc1)c1ccc(O)cc1O` ?
Completion: 144 to 146 °C

Prompt: What does the record list as melting point for `O=C1c2ccccc2C(=O)C1c1ccccc1` ?
Completion: 150 °C

Prompt: What does the record list as melting point for `ClC(c1ccccc1)c1ccccc1` ?
Completion: 16 to 19 °C

Prompt: What does the record list as melting point for `CC(C)(Cl)Cl` ?
Completion: -34 to -33.8 °C

Prompt: What does the record list as melting point for `CCCCCCCCCCCCCCCCCCCCCC` ?
Completion: 42 to 45 °C

Prompt: What does the record list as melting point for `CC(C)(C)C#N` ?
Completion: 15 to 17 °C

Prompt: What does the record list as melting point for `N#CC(C#N)=C(C#N)C#N` ?
Completion: 198 to 199 °C

Prompt: What does the record list as melting point for `O=[N+]([O-])c1cc([N+](=O)[O-])c(F)cc1F` ?
Completion: 73 to 74 °C

Prompt: What does the record list as melting point for `O=C1c2ccccc2-c2cccc3cccc1c23` ?
Completion: 170 to 173 °C

Prompt: What does the record list as melting point for `O=[N+]([O-])c1cccc2ccccc12` ?
Completion: 57 to 62 °C

Prompt: What does the record list as melting point for `O=C(O)c1ccccc1F` ?
Completion: 124 to 126 °C

Prompt: What does the record list as melting point for `CCCCCCCCCCCCCCCC(=O)O` ?
Completion: 61 to 62.5 °C

Prompt: What does the record list as melting point for `Cc1cccc(I)c1` ?
Completion: -27.2 to -27 °C

Prompt: What does the record list as melting point for `CC(=O)NN` ?
Completion: 64 to 67 °C

Prompt: What does the record list as melting point for `O=[N+]([O-])c1cccc2c([N+](=O)[O-])cccc12` ?
Completion: 216 to 219 °C

Prompt: What does the record list as melting point for `O=C(O)CCCl` ?
Completion: 39 to 41 °C

Prompt: What does the record list as melting point for `O=C(O)c1ccc(O)c(Cl)c1` ?
Completion: 169 to 171 °C

Prompt: What does the record list as melting point for `O=[N+]([O-])c1cc(C(F)(F)F)ccc1Cl` ?
Completion: -3 to -2.5 °C

Prompt: What does the record list as melting point for `CCOc1ccc(C=O)cc1OC` ?
Completion: 61 to 64.5 °C

Prompt: What does the record list as melting point for `CN(C)CC(=O)O` ?
Completion: 181 to 186 °C

----------
- Condition description: a range is the spread between reports
Provide the reported melting point of each item.

Prompt: What does the record list as melting point for `Cc1ccc(OC(=O)c2ccccc2)cc1` ?
Completion: 70 to 71.5 °C

Prompt: What does the record list as melting point for `Cc1ccc2oc(=O)ccc2c1` ?
Completion: 76 to 76.5 °C

Prompt: What does the record list as melting point for `CCOC(=O)Cc1c[nH]c2ccccc12` ?
Completion: 43 to 44.5 °C

Prompt: What does the record list as melting point for `Clc1cccc(Br)c1Cl` ?
Completion: 58 to 60 °C

Prompt: What does the record list as melting point for `O=C(CCl)c1ccccc1` ?
Completion: 54 to 56.5 °C

Prompt: What does the record list as melting point for `Nc1cccc(C(F)(F)F)c1` ?
Completion: 5.5 to 6 °C

Prompt: What does the record list as melting point for `NC(=O)c1ccccc1[N+](=O)[O-]` ?
Completion: 176 to 177 °C

Prompt: What does the record list as melting point for `Cc1cc(N)ccc1Cl` ?
Completion: 83.5 to 84 °C

Prompt: What does the record list as melting point for ClC1=C(Cl)C2(Cl)C3C(Cl)C(Cl)CC3C1(Cl)C2(Cl)Cl (stereo not drawn) ?
Completion: 104 to 106 °C

Prompt: What does the record list as melting point for `NCCc1c[nH]c2ccccc12` ?
Completion: 114 to 118 °C

Prompt: What does the record list as melting point for `Cc1ccc(N=C=O)cc1N=C=O` ?
Completion: 20 to 21 °C

Prompt: What does the record list as melting point for `O=S(=O)(Cc1ccccc1)Cc1ccccc1` ?
Completion: 151 to 152 °C

Prompt: What does the record list as melting point for `O=C(O)c1ccc([N+](=O)[O-])cc1` ?
Completion: 237 to 242 °C

Prompt: What does the record list as melting point for `O=C(O)c1ccc([N+](=O)[O-])cc1C(=O)O` ?
Completion: 162 to 163 °C

Prompt: What does the record list as melting point for `CCCC1CCCCC1` ?
Completion: -95 to -94.9 °C

Prompt: What does the record list as melting point for `Nc1ccc(C(=O)NCC(=O)O)cc1` ?
Completion: 198 to 200 °C

Prompt: What does the record list as melting point for `Nc1ccc([N+](=O)[O-])cc1C(=O)c1ccccc1` ?
Completion: 163 to 167 °C

Prompt: What does the record list as melting point for `COC(=O)c1ccccc1N` ?
Completion: 24 to 24.5 °C

Prompt: What does the record list as melting point for `CCN=c1nc(Cl)[nH]c(=NC(C)C)[nH]1` ?
Completion: 172 to 177 °C

Prompt: What does the record list as melting point for `Nc1ccccc1[N+](=O)[O-]` ?
Completion: 71 to 73 °C

Prompt: What does the record list as melting point for `O=C(O)COc1ccccc1C(=O)O` ?
Completion: 189 to 191 °C

Prompt: What does the record list as melting point for `C=C(C)C(=O)OC` ?
Completion: -48 to -47.5 °C

Prompt: What does the record list as melting point for `NNC(=O)c1ccco1` ?
Completion: 79 to 80 °C
